Reference for the values: the RNAGym collection of RNA variant scans (doi:10.1073/pnas.2313332121)

Measured polymerase ribozyme fitness (log ratio) by item
B1: TPR t1 (parent)
chain: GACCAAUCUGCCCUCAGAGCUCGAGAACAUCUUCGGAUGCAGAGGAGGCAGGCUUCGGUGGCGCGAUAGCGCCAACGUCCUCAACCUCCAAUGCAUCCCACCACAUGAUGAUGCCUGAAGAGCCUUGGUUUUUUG

Variants of: B1
Experiment: polymerase ribozyme fitness, log enrichment relative to wild type (log ratio); higher = more active; in vitro selection for triplet polymerase activity
Respond using a number only.

Some variants with recorded polymerase ribozyme fitness (log ratio):
C3U C76G    -1.27
C73A C79G    -2.94
G63C U92A    -4.04

Return value of polymerase ribozyme fitness (log ratio) for input C99A U112A G120A , no commentary. -5.93

Return value of polymerase ribozyme fitness (log ratio) for input C20A G60A , no commentary. -2.83

Return value of polymerase ribozyme fitness (log ratio) for input G61U A100C U106A U112A , no commentary. 1.26

Return value of polymerase ribozyme fitness (log ratio) for input A18U C72G U130A , no commentary. -4.54

Return value of polymerase ribozyme fitness (log ratio) for input G44U G48A C86U U92A , no commentary. -4.3

Return value of polymerase ribozyme fitness (log ratio) for input C64A A121C , no commentary. -4.57

Return value of polymerase ribozyme fitness (log ratio) for input C62U G69A , no commentary. -3.76

Return value of polymerase ribozyme fitness (log ratio) for input C73U A83U C104A G110U , no commentary. -4.18

Return value of polymerase ribozyme fitness (log ratio) for input C13U G110A , no commentary. -0.303

Return value of polymerase ribozyme fitness (log ratio) for input C3U A83U , no commentary. -0.257

Return value of polymerase ribozyme fitness (log ratio) for input U54A G71U U126G , no commentary. -2.06

Return value of polymerase ribozyme fitness (log ratio) for input G42C C80U U92G , no commentary. -3.41

Return value of polymerase ribozyme fitness (log ratio) for input A50U U54C C73A A95C , no commentary. -1.37

Return value of polymerase ribozyme fitness (log ratio) for input G25A A121C , no commentary. -4.05

Return value of polymerase ribozyme fitness (log ratio) for input C82U C115U , no commentary. -1.02

Return value of polymerase ribozyme fitness (log ratio) for input C3A A29U , no commentary. -3.36

Return value of polymerase ribozyme fitness (log ratio) for input C62G G122U , no commentary. -1.08

Return value of polymerase ribozyme fitness (log ratio) for input A50C A66C A100U , no commentary. -3.95

Return value of polymerase ribozyme fitness (log ratio) for input G39A G52A C72U C85U A95C G113U , no commentary. -5.94
